system: TEL-BaF3-BMX (stably expressing BMX kinase); assay: Cell proliferation, Cell Titer-Glo, TEL-BaF3-BMX; format: cell-based; settings: Mus musculus; incubated for 72 hours
Structures can show the parent of a compound that is named as a salt.
RECORDED METRIC: IC50 (nM)

MOLECULE	RECORDED METRIC	UNIT OF MEASUREMENT	READOUT QUALIFIER	EXPERIMENTAL RESULT
CS(=O)(=O)NC1CCC(n2nc(-c3ccc(Oc4ccccc4)cc3)c3c(N)ncnc32)CC1 (centres unmarked) [Compound 78]	IC50	nM	=	38
CN(C)CC(=O)NC1CCC(n2nc(-c3ccc(Oc4ccccc4)cc3)c3c(N)ncnc32)CC1 (centres unmarked) [Compound 76]	IC50	nM	=	120
CC(O)[C@@H](N)C(=O)N1CCC[C@@H](n2nc(-c3ccc(Oc4ccccc4)cc3)c3c(N)ncnc32)C1 (some centres unmarked) [Compound 44]	IC50	nM	=	119
Nc1ncnc2c1c(-c1ccc(Oc3ccccc3)cc1)nn2[C@@H]1CCCN(C(=O)[C@H](N)Cc2ccccc2)C1 [Compound 26]	IC50	nM	=	1300
CN1CCN(CCC(=O)N2CCC[C@@H](n3nc(-c4ccc(Oc5ccccc5)cc4)c4c(N)ncnc43)C2)CC1 [Compound 58]	IC50	nM	=	270
Nc1ncnc2c1c(-c1ccc(Oc3ccccc3)cc1)nn2[C@@H]1CCCN(C(=O)C(F)(F)F)C1 [Compound 2]	IC50	nM	=	82
CC(C)C[C@@H](N)C(=O)NC1CCC(n2nc(-c3ccc(Oc4ccccc4)cc3)c3c(N)ncnc32)CC1.Cl (some centres unmarked) [Compound 77, hydrochloride]	IC50	nM	=	52
CN(C)CC(=O)N1CCC[C@@H](n2nc(-c3ccc(Oc4ccccc4)cc3)c3c(N)ncnc32)C1 [Compound 22]	IC50	nM	=	280
Nc1ncnc2c1c(-c1ccc(Oc3ccccc3)cc1)nn2[C@@H]1CCCN(C(=O)[C@@H](N)Cc2ccc(O)cc2)C1 [Compound 11]	IC50	nM	=	440
Nc1ncnc2c1c(-c1ccc(Oc3ccccc3)cc1)nn2[C@@H]1CCCN(C(=O)[C@H](N)Cc2c[nH]cn2)C1 [Compound 7]	IC50	nM	=	330
CC(C)[C@@H](N)C(=O)NC1CCC(n2nc(-c3ccc(Oc4ccccc4)cc3)c3c(N)ncnc32)CC1 (some centres unmarked) [Compound 86, hydrochloride]	IC50	nM	<	0.3
Nc1ncnc2c1c(-c1ccc(Oc3ccccc3)cc1)nn2[C@@H]1CCCN(S(N)(=O)=O)C1 [Compound 4]	IC50	nM	=	820
CC(O)C(=O)N1CCC[C@@H](n2nc(-c3ccc(Oc4ccccc4)cc3)c3c(N)ncnc32)C1 (some centres unmarked) [Compound 23]	IC50	nM	=	88
Nc1ncnc2c1c(-c1ccc(Oc3ccccc3)cc1)nn2[C@@H]1CCCN(C(=O)N2CCNCC2)C1 [Compound 14]	IC50	nM	=	430

---

Test system: TEL-BaF3-FLT3-D835Y (stably expressing FLT3 D835Y mutant activated kinase)
Experiment: Cell proliferation, Cell Titer-Glo, TEL-BaF3-FLT3-D835Y
Assay type: cell-based
Conditions: Mus musculus; incubated for 72 hours; read-out: TEL-BaF3-FLT3-D835Y IC50
Experimental: The above cell lines were constructed by our laboratory. The number of viable cells was determined by quantification of ATP in living cells using the Cell Titer-Glo® (Promega, USA) chemiluminescence cell viability assay kit.
Counter-ions that a name gives are not always drawn.
RECORDED METRIC: IC50 (nM)

>>> df
                                   compound  readout_qualifier  experimental_result
0  CC(C)C[C@H](N)C(=O)N1CCC[C@@H](n2nc(-c3ccc(Oc4ccccc4)cc3)c3c(N)ncnc32)C1                  =                   48
1  Nc1ncnc2c1c(-c1ccc(Oc3ccccc3)cc1)nn2[C@@H]1CCCN(C(=O)N2CCNCC2)C1                  =                  240
2  CN[C@H](CC(C)C)C(=O)NC1CCC(n2nc(-c3ccc(Oc4ccccc4)cc3)c3c(N)ncnc32)CC1 (stereo partly shown) [Compound 92, hydrochloride]                  <                  0.3
3  Nc1ncnc2c1c(-c1ccc(Oc3ccccc3)cc1)nn2[C@@H]1CCCN(C(=O)C(F)(F)F)C1                  =                  130

---

Tested on: MV4-11 (expressing FLT3/ITD mutant gene)
Assay: Cell proliferation, Cell Titer-Glo, MV4-11
Format: cell-based
Conditions: Homo sapiens, MV4-11; incubated for 72 hours; read-out: MV4-11 IC50
Experimental: The above cell lines were constructed by our laboratory. The number of viable cells was determined by quantification of ATP in living cells using the Cell Titer-Glo® (Promega, USA) chemiluminescence cell viability assay kit.
pIC50: −log10 of the molar value. Where a name gives a salt, the structure may show the parent alone.

MOLECULE	READOUT QUALIFIER	pIC50
CN[C@H](CC(C)C)C(=O)NC1CCC(n2nc(-c3ccc(Oc4ccccc4)cc3)c3c(N)ncnc32)CC1 (some centres unmarked) [Compound 92, hydrochloride]	>	9.52
CN1CCN(Cc2ccc(C(=O)N3CCC[C@@H](n4nc(-c5ccc(Oc6ccccc6)cc5)c5c(N)ncnc54)C3)cc2)CC1	=	6.55
NCCC(=O)N1CCC[C@@H](n2nc(-c3ccc(Oc4ccccc4)cc3)c3c(N)ncnc32)C1	=	6.12
CC(=O)N1CCC[C@@H](n2nc(-c3ccc(Oc4ccccc4)cc3)c3c(N)ncnc32)C1	=	6.46
Nc1ncnc2c1c(-c1ccc(Oc3ccccc3)cc1)nn2[C@@H]1CCCN(C(=O)C(Cl)(Cl)Cl)C1	=	5.72

---

Listed here are compounds together with their documented IC50.
test system: MV4-11 (expressing FLT3/ITD mutant gene); experiment: Cell proliferation, Cell Titer-Glo, MV4-11; format: cell-based; conditions: Homo sapiens, MV4-11; incubated for 72 hours; read-out: MV4-11 IC50
RECORDED METRIC: IC50 (nM)

                                    compound                               test_target  experimental_result
 0  CN(C)CC(=O)N1CC[C@@H](n2nc(-c3ccc(Oc4ccccc4)cc3)c3c(N)ncnc32)C1  MV4-11 (expressing FLT3/ITD mutant gene)                   83
 1  Nc1ncnc2c1c(-c1ccc(Oc3ccccc3)cc1)nn2[C@@H]1CCCN(C(=O)C(F)(F)F)C1  MV4-11 (expressing FLT3/ITD mutant gene)                  300
 2  Nc1ncnc2c1c(-c1ccc(Oc3ccccc3)cc1)nn2[C@@H]1CCCN(C(=O)[C@H](N)Cc2c[nH]c3ccccc23)C1  MV4-11 (expressing FLT3/ITD mutant gene)                  270
 3  CC(C)C[C@@H](O)C(=O)N1CCC[C@@H](n2nc(-c3ccc(Oc4ccccc4)cc3)c3c(N)ncnc32)C1  MV4-11 (expressing FLT3/ITD mutant gene)                  948
 4  CC(C)C[C@@H](N)C(=O)N1CCC[C@@H](n2nc(-c3ccc(Oc4ccccc4)cc3)c3c(N)ncnc32)C1  MV4-11 (expressing FLT3/ITD mutant gene)                   32
 5  Nc1ncnc2c1c(-c1ccc(Oc3ccccc3)cc1)nn2[C@@H]1CCCN(C(=O)[C@H](N)Cc2ccc(O)cc2)C1  MV4-11 (expressing FLT3/ITD mutant gene)                   61
 6  CCCCC(O)C(=O)N1CCC[C@@H](n2nc(-c3ccc(Oc4ccccc4)cc3)c3c(N)ncnc32)C1 (some centres unmarked)  MV4-11 (expressing FLT3/ITD mutant gene)                  350
 7  CCCS(=O)(=O)N1CCC[C@@H](n2nc(-c3ccc(Oc4ccccc4)cc3)c3c(N)ncnc32)C1  MV4-11 (expressing FLT3/ITD mutant gene)                  760
 8  Nc1ncnc2c1c(-c1ccc(Oc3ccccc3)cc1)nn2[C@@H]1CCCN(C(=O)[C@H](N)Cc2c[nH]cn2)C1  MV4-11 (expressing FLT3/ITD mutant gene)                   10
 9  COC(=O)N1CCC(C(=O)N2CCC[C@@H](n3nc(-c4ccc(Oc5ccccc5)cc4)c4c(N)ncnc43)C2)CC1  MV4-11 (expressing FLT3/ITD mutant gene)                  520
10  CS(=O)(=O)N1CC[C@@H](n2nc(-c3ccc(Oc4ccccc4)cc3)c3c(N)ncnc32)C1  MV4-11 (expressing FLT3/ITD mutant gene)                  420

---

tested on: BaF3-FLT3-ITD-F691L (stably expressing FLT3/ITD F691L mutant activated kinase); test: Cell proliferation, Cell Titer-Glo, BaF3-FLT3-ITD-F691L; type: cell-based; conditions: Mus musculus; incubated for 72 hours; read-out: BaF3-FLT3-ITD-F691L IC50
Each item that follows carries a reported IC50.
RECORDED METRIC: IC50

>>> df
                                   compound  experimental_result
0  CN1CCC(C(=O)N2CCC[C@@H](n3nc(-c4ccc(Oc5ccccc5)cc4)c4c(N)ncnc43)C2)CC1 [Compound 33]               280 nM
1  NC(=O)C(=O)N1CCC[C@@H](n2nc(-c3ccc(Oc4ccccc4)cc3)c3c(N)ncnc32)C1 [Compound 5]               370 nM
2  Nc1ncnc2c1c(-c1ccc(Oc3ccccc3)cc1)nn2[C@@H]1CCCN(C(=O)N2CCNCC2)C1 [Compound 14]               370 nM
3  Nc1ncnc2c1c(-c1ccc(Oc3ccccc3)cc1)nn2[C@@H]1CCCN(C(=O)[C@@H](N)Cc2ccc(O)cc2)C1 [Compound 11]               260 nM
4  CN(C)CC(=O)NC1CCC(n2nc(-c3ccc(Oc4ccccc4)cc3)c3c(N)ncnc32)CC1 (stereo not drawn) [Compound 76]               180 nM
5  NCC(=O)N1CCC[C@@H](n2nc(-c3ccc(Oc4ccccc4)cc3)c3c(N)ncnc32)C1 [Compound 43]              1100 nM
